Origin of the recorded values: paper PMC11995402

tested on: MDR1 (P-gp); experiment: in vitro; conditions: dog, MDCK-MDR1
attribute_measured: efflux ratio
Number only, please.

input: Give efflux ratio (MDR1 (P-gp)) of the following molecule: "C[C@H]1O[C@@H](O[C@H]2[C@@H](O)C[C@H](O[C@H]3[C@@H](O)C[C@H](O[C@H]4CC[C@@]5(C)[C@H](CC[C@@H]6[C@@H]5C[C@@H](O)[C@]5(C)[C@@H](C7=CC(=O)OC7)CC[C@]65O)C4)O[C@@H]3C)O[C@@H]2C)C[C@H](O)[C@@H]1O"
output: 22.8

###

tested on: T. muris; assay: adult whipworm whole-worm motility inhibition assay; format: cell-based, Trichuris muris; conditions: Trichuris muris, 24 h, read-out: T. muris IC50 μM (95% CI) 24 h
attribute_measured: IC50

input: Request the reported IC50 associated with "CCCSc1ccc2nc(NC(=O)OC)[nH]c2c1"
output: > 300 µM

###

Parameter recovery: see the listing below.
assay: in vitro; details: dog, MDCK-MDR1
Could you give me the number in %? Just the number is fine.

molecule="COCCc1ccc(OCC(O)CNC(C)C)cc1 (centres unmarked) [metoprolol]" readout_units=% experimental_result=97.4

Now look at this one.
input: What measured recovery goes with CC(C)(C)NCC(O)COc1cccc2c1CC(O)C(O)C2 (centres unmarked) [nadolol] ?
output: 83.1

###

test system: MDR1 (P-gp); assay: in vitro; settings: dog, MDCK-MDR1
attribute_measured: Papp B→A (×10⁻⁶ cm/s)
Reply numerically in ×10⁻⁶ cm/s, unit not repeated.

input: What reported Papp B→A corresponds to "C[C@H]1O[C@@H](O[C@H]2[C@@H](O)C[C@H](O[C@H]3[C@@H](O)C[C@H](O[C@H]4CC[C@@]5(C)[C@H](CC[C@@H]6[C@@H]5C[C@@H](O)[C@]5(C)[C@@H](C7=CC(=O)OC7)CC[C@]65O)C4)O[C@@H]3C)O[C@@H]2C)C[C@H](O)[C@@H]1O" on MDR1 (P-gp)?
output: 3.43

###

experiment: in vitro; details: dog, MDCK-MDR1, mean solution recovery % B to A, MDR1-MDCK II cells
attribute_measured: recovery (%)
Quick note: give the figure in %, leave out the unit.

input: Name the recorded recovery for "C[C@H]1O[C@@H](O[C@H]2[C@@H](O)C[C@H](O[C@H]3[C@@H](O)C[C@H](O[C@H]4CC[C@@]5(C)[C@H](CC[C@@H]6[C@@H]5C[C@@H](O)[C@]5(C)[C@@H](C7=CC(=O)OC7)CC[C@]65O)C4)O[C@@H]3C)O[C@@H]2C)C[C@H](O)[C@@H]1O" .
output: 92.7

###

tested on: T. muris; assay: adult whipworm whole-worm motility inhibition assay; format: cell-based, Trichuris muris; settings: read-out: T. muris IC50 μM (95% CI) 48 h; motility, 48 h
Consider the following compounds and their measured IC50 readings.
Respond numerically; units are µM and should not be typed.

input: Entry CC(C)C[C@H]1C(=O)O[C@H](Cc2ccc(N3CCOCC3)cc2)C(=O)N(C)[C@@H](CC(C)C)C(=O)O[C@H](C)C(=O)N(C)[C@@H](CC(C)C)C(=O)O[C@H](Cc2ccc(N3CCOCC3)cc2)C(=O)N(C)[C@@H](CC(C)C)C(=O)O[C@H](C)C(=O)N1C [emodepside] has what IC50?
output: 0.0345

input: // IC50 lookup, key: CN1CCCN(C(=O)c2cccc(-c3ccc(/C=C4/C(=O)Nc5ccc(Cl)cc54)o3)c2)CC1 [CX-6258]
output: 14.7

###

assay: in vitro; settings: dog, MDCK-MDR1, mean solution recovery % A to B, MDR1-MDCK II cells
attribute_measured: recovery (%)
Just the number please, in %, no unit attached.

input: Look up recovery: "C[C@H]1O[C@@H](O[C@H]2[C@@H](O)C[C@H](O[C@H]3[C@@H](O)C[C@H](O[C@H]4CC[C@@]5(C)[C@H](CC[C@@H]6[C@@H]5C[C@@H](O)[C@]5(C)[C@@H](C7=CC(=O)OC7)CC[C@]65O)C4)O[C@@H]3C)O[C@@H]2C)C[C@H](O)[C@@H]1O"
output: 77.5

###

test system: A. ceylanicum; assay: adult hookworm whole-worm motility inhibition assay; format: cell-based, Ancylostoma ceylanicum; details: read-out: A. ceylanicum IC50 μM (95% CI) 24 h; motility, 24 h
As shown below, each of these compounds has a reported IC50 value.
Please state the figure in µM; there is no need to write the unit.

input: Requested field: IC50. Item: CN1CCCN(C(=O)c2cccc(-c3ccc(C=C4C(=O)Nc5ccccc54)o3)c2)CC1 [Compound 11]
output: 25.2

input: Form field: reported IC50 of CC(C)C[C@H]1C(=O)O[C@H](Cc2ccc(N3CCOCC3)cc2)C(=O)N(C)[C@@H](CC(C)C)C(=O)O[C@H](C)C(=O)N(C)[C@@H](CC(C)C)C(=O)O[C@H](Cc2ccc(N3CCOCC3)cc2)C(=O)N(C)[C@@H](CC(C)C)C(=O)O[C@H](C)C(=O)N1C [emodepside]
output: 0.0033

input: Name the reported IC50 value associated with the compound CN1CCCN(C(=O)c2cccc(-c3ccc(/C=C4/C(=O)Nc5ccc(Cl)cc54)o3)c2)CC1 [CX-6258]
output: 31.6

input: Could you share which IC50 value was measured for CN1CCCN(C(=O)c2cccc(-c3ccc(C=C4C(=O)Nc5c(Cl)cccc54)o3)c2)CC1 [Compound 8] ?
output: 40

###

Listing of recorded IC50 by entry.
tested on: T. muris; test: adult whipworm whole-worm motility inhibition assay; assay type: cell-based, Trichuris muris; details: read-out: T. muris IC50 μM (95% CI) 24 h; motility, 24 h

Study these solved cases before continuing.
molecule=CN1CCCN(C(=O)c2cccc(-c3ccc(C=C4C(=O)Nc5c(Cl)cccc54)o3)c2)CC1 experimental_result="42 µM"
molecule="CC(C)C[C@H]1C(=O)O[C@H](Cc2ccc(N3CCOCC3)cc2)C(=O)N(C)[C@@H](CC(C)C)C(=O)O[C@H](C)C(=O)N(C)[C@@H](CC(C)C)C(=O)O[C@H](Cc2ccc(N3CCOCC3)cc2)C(=O)N(C)[C@@H](CC(C)C)C(=O)O[C@H](C)C(=O)N1C [emodepside]" experimental_result="0.0143 µM"
molecule=CN1CCCN(C(=O)c2cccc(-c3ccc(/C=C4/C(=O)Nc5ccc(Cl)cc54)o3)c2)CC1 experimental_result="17.8 µM"

Please examine the following record next.
input: So what does the record say about IC50 for "CN1CCCN(C(=O)c2cccc(-c3ccc(C=C4C(=O)Nc5ccccc54)o3)c2)CC1" ?
output: > 90 µM
